# Assay Text: self-splicing fitness, log relative to wild type (ln ratio); higher = more splicing; Tetrahymena group I intron in knt gene, E. coli kanamycin selection, DiMSum; sequences stand for … in CUCUCU…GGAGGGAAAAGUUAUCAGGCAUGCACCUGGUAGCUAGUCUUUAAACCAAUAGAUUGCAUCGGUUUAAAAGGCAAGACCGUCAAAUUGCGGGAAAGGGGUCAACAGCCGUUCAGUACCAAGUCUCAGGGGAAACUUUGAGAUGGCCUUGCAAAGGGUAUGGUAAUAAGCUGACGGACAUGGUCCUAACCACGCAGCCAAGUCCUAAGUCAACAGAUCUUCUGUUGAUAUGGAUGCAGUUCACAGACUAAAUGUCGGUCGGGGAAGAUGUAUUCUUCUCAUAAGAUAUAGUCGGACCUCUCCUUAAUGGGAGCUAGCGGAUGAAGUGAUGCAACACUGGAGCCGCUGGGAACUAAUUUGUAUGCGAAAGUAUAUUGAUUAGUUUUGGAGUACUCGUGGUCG;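 note: selection with 25 µg/mL kanamycin versus none on LB agar overnight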
# Experimental Parameters: 30 °C
Below, each of the sequences is paired with its reported self-splicing fitness (ln) value.

Prompt: # lookup: self-splicing fitness (ln) of UAGCAGCAAUAUUACGUGCG
Completion: -0.801

Prompt: # lookup: self-splicing fitness (ln) of CAACAGCAAUAUUACGAGAU
Completion: -3.74

Prompt: # lookup: self-splicing fitness (ln) of ACGGAGCAAUAUUACGGAUA
Completion: -3.27

Continuing:
Prompt: # lookup: self-splicing fitness (ln) of UAAUAGCAAUAUUACGCGAU
Completion: -3.2

Prompt: # lookup: self-splicing fitness (ln) of AACCAGCAAUAUUACGGACA
Completion: -0.462

Prompt: # lookup: self-splicing fitness (ln) of GAGAAGCAAUAUUACGGUGA
Completion: -1.88
